# measuredOn: human TLR9 (Homo sapiens, UniProt Q9NR96)
# Construct: host or cells: HEK-Blue cells
# Sequence (Q9NR96 26-1032): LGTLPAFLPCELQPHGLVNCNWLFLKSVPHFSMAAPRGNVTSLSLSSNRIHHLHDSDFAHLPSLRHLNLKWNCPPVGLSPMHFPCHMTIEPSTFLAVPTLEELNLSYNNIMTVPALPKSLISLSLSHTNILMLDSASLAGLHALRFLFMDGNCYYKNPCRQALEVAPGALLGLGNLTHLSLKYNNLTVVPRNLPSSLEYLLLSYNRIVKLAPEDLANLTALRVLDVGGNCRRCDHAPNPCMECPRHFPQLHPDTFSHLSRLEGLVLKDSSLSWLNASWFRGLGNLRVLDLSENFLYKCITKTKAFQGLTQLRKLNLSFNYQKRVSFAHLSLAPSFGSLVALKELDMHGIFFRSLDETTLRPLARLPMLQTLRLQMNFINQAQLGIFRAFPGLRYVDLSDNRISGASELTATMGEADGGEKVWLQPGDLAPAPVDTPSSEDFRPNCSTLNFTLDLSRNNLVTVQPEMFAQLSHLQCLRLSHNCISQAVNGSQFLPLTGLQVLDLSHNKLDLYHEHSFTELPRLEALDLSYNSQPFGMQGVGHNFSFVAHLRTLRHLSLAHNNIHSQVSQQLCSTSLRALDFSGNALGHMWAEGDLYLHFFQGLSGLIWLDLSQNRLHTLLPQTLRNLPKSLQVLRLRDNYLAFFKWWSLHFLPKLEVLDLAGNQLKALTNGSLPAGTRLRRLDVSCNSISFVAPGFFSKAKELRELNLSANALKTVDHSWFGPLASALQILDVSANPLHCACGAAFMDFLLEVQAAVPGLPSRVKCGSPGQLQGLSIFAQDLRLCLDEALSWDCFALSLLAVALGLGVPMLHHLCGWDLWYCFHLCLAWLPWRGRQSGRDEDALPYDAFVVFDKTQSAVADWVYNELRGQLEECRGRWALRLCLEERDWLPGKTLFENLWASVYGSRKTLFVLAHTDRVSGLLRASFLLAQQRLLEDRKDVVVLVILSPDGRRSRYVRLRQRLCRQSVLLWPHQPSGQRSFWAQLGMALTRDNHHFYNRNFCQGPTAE
# test: TLR9 inhibition reporter assay (HEK-Blue cells, SEAP reporter, ODN2006 stimulation)
# Assay type: cell-based
# details: HEK-Blue cells overexpressing human TLR9, SEAP reporter, ODN2006 5 nM
measurementName: IC50

{"molecule": "Cc1c(-c2[nH]c3sc(C4CCC(NC(C)C)CC4)nc3c2C(C)C)cn(C)c(=O)c1C (single isomer, unassigned) [Example 253]", "endpointValue": "23 µM"}
{"molecule": "CCN(C)C1CCC(c2nc3c(C(C)C)c(-c4cn(C)c(=O)c(C)c4C)[nH]c3s2)CC1 (single isomer, unassigned) [Example 248]", "endpointValue": "14 µM"}
{"molecule": "CCC(CC)CN1CCC(c2nc3c(C(C)C)c(-c4cn5ncnc5c(C)c4C)[nH]c3s2)CC1", "endpointValue": "6.67 µM"}
{"molecule": "Cc1c(-c2[nH]c3sc(N4CCN(CC(C)(C)O)C[C@H]4C)nc3c2C(C)C)cn2ncnc2c1C", "endpointValue": "> 50 µM"}
{"molecule": "COc1cc(-c2[nH]c3sc(C4CCC(NC5COC5)CC4)nc3c2C)cn2ncnc12 (single isomer, unassigned)", "endpointValue": "5.55 µM"}
{"molecule": "Cc1c(-c2[nH]c3sc(C4CCC(N5CC6(COC6)C5)CC4)nc3c2C(C)C)cn(C)c(=O)c1C (single isomer, unassigned) [Example 246]", "endpointValue": "> 50 µM"}
{"molecule": "COc1cc(-c2[nH]c3sc(C4CCC(N5[C@@H]6CC[C@H]5COC6)CC4)nc3c2C(C)C)cn2ncnc12 (single isomer, unassigned) [Example 105]", "endpointValue": "2.18 µM"}
{"molecule": "Cc1c(-c2[nH]c3sc(N4CC5(CN(CC(C)C)C5)C4)nc3c2C(C)C)cn2ncnc2c1C", "endpointValue": "10.1 µM"}
{"molecule": "COc1cc(-c2[nH]c3sc(C4CCC(NC5(C#N)CC5)CC4)nc3c2C(C)C)cn2ncnc12 (centres unmarked) [Example 106]", "endpointValue": "14.3 µM"}
{"molecule": "Cc1c(-c2[nH]c3sc(C4CCC(N5CC(O)C5)CC4)nc3c2C(C)C)cn2ncnc2c1C (single isomer, unassigned) [Example 224]", "endpointValue": "9.03 µM"}
{"molecule": "Cc1cc2ncnn2cc1-c1[nH]c2sc(C3CCC(N4CCCC4)CC3)nc2c1C(C)C (single isomer, unassigned) [Example 154]", "endpointValue": "9.31 µM"}
{"molecule": "CCc1c(-c2cc(OC)c3ncnn3c2)[nH]c2sc(C3CCC(NC4COC4)CC3)nc12 (single isomer, unassigned) [Example 271]", "endpointValue": "4.56 µM"}
{"molecule": "Cc1c(-c2[nH]c3sc(C4CCC(N5CCC5)CC4)nc3c2C(C)C)cn(C)c(=O)c1C (single isomer, unassigned) [Example 256]", "endpointValue": "16.9 µM"}
{"molecule": "COc1cc(-c2[nH]c3sc(C4CCC(NC(C)C)CC4)nc3c2C(C)C)cn2ncnc12 (single isomer, unassigned) [Example 79]", "endpointValue": "4.12 µM"}
{"molecule": "Cc1c(-c2[nH]c3sc(N4C[C@@H](C)N(C5CCC5)C[C@@H]4C)nc3c2C(C)C)cn2ncnc2c1C", "endpointValue": "37.4 µM"}
{"molecule": "Cc1cc(-c2[nH]c3sc(N4CCN(C(C)C)C[C@H]4C)nc3c2C(C)C)cn2ncnc12", "endpointValue": "6.26 µM"}
{"molecule": "Cc1cc(-c2[nH]c3sc(C4CCC(NCC5(C)COC5)CC4)nc3c2C(C)C)cn2ncnc12 (single isomer, unassigned) [Example 134]", "endpointValue": "16.1 µM"}
{"molecule": "Cc1c(-c2[nH]c3sc(C(=O)NCCN(C)C)nc3c2C(C)C)cn2ncnc2c1C", "endpointValue": "8.88 µM"}
{"molecule": "COc1cc(-c2[nH]c3sc(C4CCC(NCC(C)(C)O)CC4)nc3c2C(C)C)cn2ncnc12 (single isomer, unassigned) [Example 84]", "endpointValue": "9.11 µM"}
{"molecule": "COc1cc(-c2[nH]c3sc(C4CCC(NC5CC6(CNC6)C5)CC4)nc3c2C(C)C)cn2ncnc12 (single isomer, unassigned) [Example 116]", "endpointValue": "3.88 µM"}
{"molecule": "Cc1c(-c2[nH]c3sc(N4C[C@@H](C)N(CC5CC5)C[C@@H]4C)nc3c2C(C)C)cn2ncnc2c1C", "endpointValue": "10.2 µM"}
{"molecule": "COc1cc(-c2[nH]c3sc(C4CCC(N5CC6(C5)CS(=O)(=O)C6)CC4)nc3c2C(C)C)cn2ncnc12 (centres unmarked) [Example 97]", "endpointValue": "5.49 µM"}
{"molecule": "Cc1c(-c2[nH]c3sc(C4CCC(N5CC(O)(C(F)(F)F)C5)CC4)nc3c2C(C)C)cn(C)c(=O)c1C (single isomer, unassigned) [Example 268]", "endpointValue": "> 50 µM"}
{"molecule": "Cc1c(-c2[nH]c3sc(CN4CC5(CNC5)C4)nc3c2C(C)C)cn2ncnc2c1C", "endpointValue": "9.8 µM"}
{"molecule": "Cc1c(-c2[nH]c3sc(C4CCN(S(C)(=O)=O)CC4)nc3c2C(C)C)cn2ncnc2c1C", "endpointValue": "45.4 µM"}
{"molecule": "CNCCNC1CCC(c2nc3c(C(C)C)c(-c4cc(OC)c5ncnn5c4)[nH]c3s2)CC1 (single isomer, unassigned) [Example 170]", "endpointValue": "1.76 µM"}

###

# measuredOn: human TLR9 (Homo sapiens)
# Sequence (Q9NR96 26-1032): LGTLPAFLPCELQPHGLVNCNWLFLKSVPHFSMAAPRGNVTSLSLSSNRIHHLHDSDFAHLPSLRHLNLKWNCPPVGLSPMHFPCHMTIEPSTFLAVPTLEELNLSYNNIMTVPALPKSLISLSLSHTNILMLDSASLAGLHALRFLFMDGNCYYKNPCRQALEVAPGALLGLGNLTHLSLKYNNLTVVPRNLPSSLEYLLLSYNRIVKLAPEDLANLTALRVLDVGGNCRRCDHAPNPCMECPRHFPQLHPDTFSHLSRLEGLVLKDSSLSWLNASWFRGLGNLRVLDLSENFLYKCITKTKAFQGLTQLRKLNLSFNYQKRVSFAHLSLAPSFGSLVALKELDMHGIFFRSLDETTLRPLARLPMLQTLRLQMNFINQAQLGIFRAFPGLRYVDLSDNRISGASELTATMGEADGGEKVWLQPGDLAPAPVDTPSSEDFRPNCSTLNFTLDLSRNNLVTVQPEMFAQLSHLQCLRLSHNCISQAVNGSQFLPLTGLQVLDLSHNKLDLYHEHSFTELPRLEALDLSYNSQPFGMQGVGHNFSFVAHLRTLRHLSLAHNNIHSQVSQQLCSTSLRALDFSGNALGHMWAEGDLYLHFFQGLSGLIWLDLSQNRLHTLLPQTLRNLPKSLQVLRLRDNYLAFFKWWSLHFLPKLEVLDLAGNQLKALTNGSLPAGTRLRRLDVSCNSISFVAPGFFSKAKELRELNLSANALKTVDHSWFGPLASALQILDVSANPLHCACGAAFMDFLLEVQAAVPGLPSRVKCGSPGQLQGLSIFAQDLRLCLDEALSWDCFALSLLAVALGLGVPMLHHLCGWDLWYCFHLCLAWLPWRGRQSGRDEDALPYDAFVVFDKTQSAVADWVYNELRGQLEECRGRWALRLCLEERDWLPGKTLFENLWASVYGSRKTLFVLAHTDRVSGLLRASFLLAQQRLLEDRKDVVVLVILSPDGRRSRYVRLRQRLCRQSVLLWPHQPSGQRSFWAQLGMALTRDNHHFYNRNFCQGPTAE
# test: TLR9 inhibition reporter assay (HEK-Blue cells, SEAP reporter, ODN2006 stimulation)
# details: HEK-Blue cells overexpressing human TLR9, SEAP reporter, ODN2006 5 nM
pIC50: −log10 of the molar value.

{"compound": "Cc1c(-c2[nH]c3sc(N4CCNCC4)nc3c2C(C)C)cn2ncnc2c1C", "qualifier": "=", "pIC50": 4.97}
{"compound": "Cc1cc(-c2[nH]c3sc(N4CCN(C5CCC5)C[C@H]4C)nc3c2C(C)C)cn2ncnc12", "qualifier": "=", "pIC50": 4.60}
{"compound": "Cc1c(-c2[nH]c3sc(N4C[C@@H](C)N(C(=O)CN(C)C)C[C@@H]4C)nc3c2C(C)C)cn2ncnc2c1C", "qualifier": "=", "pIC50": 4.78}
{"compound": "Cc1c(-c2[nH]c3sc(N4CCN(C5CCC5)C[C@H]4C)nc3c2C(C)C)cn2ncnc2c1C", "qualifier": "<", "pIC50": 4.30}
{"compound": "Cc1c(-c2[nH]c3sc(C4CCC(N5CC6(C5)CS(=O)(=O)C6)CC4)nc3c2C(C)C)cn2ncnc2c1C (single isomer, unassigned) [Example 234]", "qualifier": "<", "pIC50": 4.30}
{"compound": "CCc1c(-c2cc(OC)c3ncnn3c2)[nH]c2sc(C3CCC(NC4COC4)CC3)nc12 (single isomer, unassigned) [Example 272]", "qualifier": "<", "pIC50": 4.30}
{"compound": "COc1cc(-c2[nH]c3sc(C4CCC(N5CCNC(=O)C5)CC4)nc3c2C)cn2ncnc12 (single isomer, unassigned) [Example 276]", "qualifier": "<", "pIC50": 4.30}
